# Target of assay: D(1A) dopamine receptor (Homo sapiens, UniProt P21728)
# Sequence (P21728 whole entry): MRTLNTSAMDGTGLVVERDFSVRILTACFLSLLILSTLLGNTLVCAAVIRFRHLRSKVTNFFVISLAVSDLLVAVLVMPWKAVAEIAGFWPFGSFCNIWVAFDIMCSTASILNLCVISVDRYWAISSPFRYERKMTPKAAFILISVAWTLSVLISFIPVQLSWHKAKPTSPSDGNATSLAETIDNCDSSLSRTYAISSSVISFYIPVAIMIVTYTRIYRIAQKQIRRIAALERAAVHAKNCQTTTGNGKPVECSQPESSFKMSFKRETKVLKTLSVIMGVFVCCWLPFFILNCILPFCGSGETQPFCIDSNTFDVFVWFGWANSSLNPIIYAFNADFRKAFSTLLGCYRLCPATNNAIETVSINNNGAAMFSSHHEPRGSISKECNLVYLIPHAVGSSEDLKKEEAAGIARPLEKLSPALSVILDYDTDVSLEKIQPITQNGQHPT
# Test method notes: Displacement of [3H]SCH 23390 from human dopamine D1 receptor expressed in CHO cells
Classify: class 1 when Ki is strictly less than 30 nM; class 0 when Ki is not.

Answered cases to consult:
Chemical structure | Target of assay | Class assignment
CN1CCN(C2=Nc3cc(Cl)ccc3N(NC(=O)c3ccc(Cl)c(Cl)c3)c3ccccc32)CC1 | D(1A) dopamine receptor (Homo sapiens, UniProt P21728) | class 1
Cc1cccc(C)c1C(=O)NN1c2ccc(Cl)cc2N=C(N2CCN(C)CC2)c2ccccc21 | D(1A) dopamine receptor (Homo sapiens, UniProt P21728) | class 1
CN1CCN(C2=Nc3cc(Cl)ccc3N(NC(=O)c3ccc(Br)cc3)c3ccccc32)CC1 | D(1A) dopamine receptor (Homo sapiens, UniProt P21728) | class 1
CN1CCN(C2=Nc3cc(Cl)ccc3N(NC(=O)C3CCC3)c3ccccc32)CC1 | D(1A) dopamine receptor (Homo sapiens, UniProt P21728) | class 0
CN1CCN(C2=Nc3cc(Cl)ccc3N(NC(=O)c3ccco3)c3ccccc32)CC1 | D(1A) dopamine receptor (Homo sapiens, UniProt P21728) | class 1

Please indicate whether the reported Ki of CCCC(=O)NN1c2ccc(Cl)cc2N=C(N2CCN(C)CC2)c2ccccc21 is strictly below 30 nM. class 0

In the record for CN1CCN(C2=Nc3cc(Cl)ccc3N(NC(=O)/C=C/c3ccccc3)c3ccccc32)CC1 , is Ki less than 30 nM? class 0

Answer whether the molecule CN1CCN(C2=Nc3cc(Cl)ccc3N(NC(=O)c3sccc3-c3ccccc3)c3ccccc32)CC1 has Ki strictly less than 30 nM class 0

Quick check: Ki of COc1ccc(C(=O)NN2c3ccc(Cl)cc3N=C(N3CCN(C)CC3)c3ccccc32)cc1 under 30 nM? class 0

Please indicate whether the reported Ki of CN1CCN(C2=Nc3cc(Cl)ccc3N(NC(=O)c3ccccc3F)c3ccccc32)CC1 is strictly below 30 nM. class 1
